tested target: T1, GDF11 (UniProt O95390 299-407)
T1 sequence (looked up): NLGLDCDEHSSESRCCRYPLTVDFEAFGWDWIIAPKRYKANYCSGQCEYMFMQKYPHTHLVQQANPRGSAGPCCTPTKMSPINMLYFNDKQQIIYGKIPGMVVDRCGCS
protocol details: cell-based or functional assay
measure name: IC50 (ng/mL), reporter gene assay, conditioned media
The reply should be a number in ng/mL, with the unit left off.

Exam item: Find the recorded IC50 (ng/mL), reporter gene assay, conditioned media belonging to ActRIIb-hFc (R64, 20-131) (Fc fusion) GRGEAETRECIYYNANWELERTNQSGLERCEGEQDKRLHCYASWRNSSGTIELVKKGCWLDDFNCYDRQECVATEENPQVYFCCCEGNFCNERFTHLPEAGGPEVTYEPPPTGGGTHTCPPCPAPELLGGPSVFLFPPKPKDTLMISRTPEVTCVVVDVSHEDPEVKFNWYVDGVEVHNAKTKPREEQYNSTYRVVSVLTVLHQDWLNGKEYKCKVSNKALPVPIEKTISKAKGQPREPQVYTLPPSREEMTKNQVSLTCLVKGFYPSDIAVEWESNGQPENNYKTTPPVLDSDGSFFLYSKLTVDKSRWQQGNVFSCSVMHEALHNHYTQKSLSLSPGK and report it.
Marked response: 183

These data points were gathered from patent US20160264681A1.
